Readings of IC50 for the listed compounds
target: purified human C5 (Homo sapiens); experiment: Red blood cell hemolysis assay, optical, absorbance 412 nm (Example 3, Table 6); type: cell-based; conditions: antibody-sensitized sheep erythrocytes, 1.5% human C5 depleted sera, 0.5 nM human C5; average where replicates
Sequence (P01031 19-1676): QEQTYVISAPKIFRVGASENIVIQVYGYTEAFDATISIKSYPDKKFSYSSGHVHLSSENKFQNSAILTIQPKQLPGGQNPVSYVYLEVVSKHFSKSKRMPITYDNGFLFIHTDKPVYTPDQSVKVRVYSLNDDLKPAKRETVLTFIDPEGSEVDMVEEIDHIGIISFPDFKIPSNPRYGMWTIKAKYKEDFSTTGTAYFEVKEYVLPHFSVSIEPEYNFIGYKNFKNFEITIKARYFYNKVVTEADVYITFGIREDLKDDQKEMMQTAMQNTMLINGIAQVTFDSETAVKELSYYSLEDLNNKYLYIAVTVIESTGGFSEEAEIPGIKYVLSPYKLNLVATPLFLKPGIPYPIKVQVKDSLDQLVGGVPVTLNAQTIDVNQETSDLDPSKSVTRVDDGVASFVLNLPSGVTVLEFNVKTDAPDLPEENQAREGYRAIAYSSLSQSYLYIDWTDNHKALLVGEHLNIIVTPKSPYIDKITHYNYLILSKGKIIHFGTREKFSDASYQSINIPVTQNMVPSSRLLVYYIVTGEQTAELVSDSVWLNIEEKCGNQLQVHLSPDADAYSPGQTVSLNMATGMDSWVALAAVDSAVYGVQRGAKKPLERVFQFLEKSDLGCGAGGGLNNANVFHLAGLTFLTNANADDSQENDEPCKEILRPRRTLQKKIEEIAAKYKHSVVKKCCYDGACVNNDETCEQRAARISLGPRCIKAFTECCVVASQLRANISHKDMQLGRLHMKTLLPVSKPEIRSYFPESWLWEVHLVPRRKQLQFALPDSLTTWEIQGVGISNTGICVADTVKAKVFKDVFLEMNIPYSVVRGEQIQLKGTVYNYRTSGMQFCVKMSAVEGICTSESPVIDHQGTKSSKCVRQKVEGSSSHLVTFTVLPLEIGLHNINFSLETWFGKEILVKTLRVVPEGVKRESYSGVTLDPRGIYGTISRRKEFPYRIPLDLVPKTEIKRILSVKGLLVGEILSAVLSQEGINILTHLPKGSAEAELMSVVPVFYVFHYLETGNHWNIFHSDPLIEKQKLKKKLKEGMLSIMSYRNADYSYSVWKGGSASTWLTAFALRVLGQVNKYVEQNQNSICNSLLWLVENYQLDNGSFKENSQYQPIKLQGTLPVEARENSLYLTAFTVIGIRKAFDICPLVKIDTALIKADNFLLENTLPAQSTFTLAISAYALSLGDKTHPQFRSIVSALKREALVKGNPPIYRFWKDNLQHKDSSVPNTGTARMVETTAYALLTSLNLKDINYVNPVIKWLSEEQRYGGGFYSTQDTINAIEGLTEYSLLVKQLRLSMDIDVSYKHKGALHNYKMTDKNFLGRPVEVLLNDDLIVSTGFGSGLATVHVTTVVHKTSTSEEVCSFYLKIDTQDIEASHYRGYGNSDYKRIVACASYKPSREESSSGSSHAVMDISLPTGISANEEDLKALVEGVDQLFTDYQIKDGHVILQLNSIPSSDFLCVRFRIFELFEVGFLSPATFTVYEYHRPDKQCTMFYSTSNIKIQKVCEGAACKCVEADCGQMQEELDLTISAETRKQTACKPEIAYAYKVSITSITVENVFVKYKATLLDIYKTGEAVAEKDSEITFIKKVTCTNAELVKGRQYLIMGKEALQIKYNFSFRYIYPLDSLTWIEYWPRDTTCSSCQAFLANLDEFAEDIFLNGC
Your answer should be a plain number; it is taken to be in nM.

Examples with answers:
| compound | IC50 [nM] |
| --- | --- |
| COc1ccc(NC(=O)NC(CCO)c2ccccc2)cc1OCCCC(C)C (centres unmarked) [SM0064] | 6450 |
| COc1ccc(NC(=O)N[C@@H](CO)c2ccccc2)cc1C#CCCC(C)C [SM0014] | 335 |
| COc1ccc(NC(=O)NCC(O)c2ccccn2)cc1OCCCC(C)C (centres unmarked) [SM0078] | 12600 |
| COc1ccc(NC(=O)N[C@@H](CO)c2ccccc2)cc1OCCCC(C)C [SM0011] | 266 |

So what IC50 did COc1ccc(NC(=O)N[C@@H](C)c2ccccc2)cc1OCCCC(C)C [SM0009] get with purified human C5 (Homo sapiens)?
198

Please state recorded IC50 (tested on purified human C5 (Homo sapiens)) of COc1ccc(NC(=O)NCc2ccccc2O)cc1OCCCC(C)C [SM0004]
42.6

Test system purified human C5 (Homo sapiens); read-out IC50; what value for COc1ccc(NC(=O)NC(CO)c2ccccc2O)cc1OCCCC(C)C (centres unmarked) [SM0001] ?
20.9
